Target: GABAA2 receptors (α2, β3, γ3 receptor subunits transfected into Sf9 cells) (Homo sapiens, UniProt P47869+Q99928)
Sequence (P47869 29-451): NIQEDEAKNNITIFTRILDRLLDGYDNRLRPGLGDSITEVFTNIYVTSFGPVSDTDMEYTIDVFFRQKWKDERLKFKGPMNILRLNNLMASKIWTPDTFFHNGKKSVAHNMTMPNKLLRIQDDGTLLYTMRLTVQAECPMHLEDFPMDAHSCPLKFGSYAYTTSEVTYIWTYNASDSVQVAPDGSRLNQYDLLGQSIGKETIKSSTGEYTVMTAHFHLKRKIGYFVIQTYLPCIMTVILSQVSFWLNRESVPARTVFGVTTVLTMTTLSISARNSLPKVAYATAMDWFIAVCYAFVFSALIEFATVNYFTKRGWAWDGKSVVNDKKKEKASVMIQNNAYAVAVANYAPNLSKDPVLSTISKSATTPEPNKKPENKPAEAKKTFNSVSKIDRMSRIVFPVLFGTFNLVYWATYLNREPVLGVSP
Sequence (P28472 26-473 partner): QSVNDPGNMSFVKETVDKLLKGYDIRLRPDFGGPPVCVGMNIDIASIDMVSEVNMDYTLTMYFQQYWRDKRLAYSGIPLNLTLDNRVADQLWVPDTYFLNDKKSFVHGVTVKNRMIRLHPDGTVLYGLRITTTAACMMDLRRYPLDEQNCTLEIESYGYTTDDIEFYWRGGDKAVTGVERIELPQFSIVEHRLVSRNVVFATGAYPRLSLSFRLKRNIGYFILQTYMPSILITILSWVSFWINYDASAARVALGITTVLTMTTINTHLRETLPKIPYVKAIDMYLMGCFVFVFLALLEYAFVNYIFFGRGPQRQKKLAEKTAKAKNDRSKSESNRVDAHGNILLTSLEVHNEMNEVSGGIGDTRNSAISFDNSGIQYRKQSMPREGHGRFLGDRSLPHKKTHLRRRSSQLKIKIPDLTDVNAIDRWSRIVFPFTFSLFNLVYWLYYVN
Sequence (Q99928 18-467): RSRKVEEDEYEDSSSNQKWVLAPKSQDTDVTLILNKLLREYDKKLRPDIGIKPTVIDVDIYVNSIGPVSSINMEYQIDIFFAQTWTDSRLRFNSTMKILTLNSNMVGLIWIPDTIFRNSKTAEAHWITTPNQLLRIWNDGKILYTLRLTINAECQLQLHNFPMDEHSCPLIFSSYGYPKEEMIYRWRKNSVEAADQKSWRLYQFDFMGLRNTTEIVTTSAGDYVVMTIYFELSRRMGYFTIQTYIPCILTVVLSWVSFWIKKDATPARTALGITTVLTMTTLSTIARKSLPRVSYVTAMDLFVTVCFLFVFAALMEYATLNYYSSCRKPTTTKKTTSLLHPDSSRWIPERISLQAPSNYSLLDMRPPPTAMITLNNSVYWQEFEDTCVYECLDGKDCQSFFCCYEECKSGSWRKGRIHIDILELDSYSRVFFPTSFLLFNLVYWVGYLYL
Assay: GABAA2 binding method ([3H]-flunitrazepam displacement)
Conditions: [3H]-flunitrazepam ~2 nM, Sf9 membranes, 1 hr at 4° C.
Doc: threshold 3 nM (exclusive). Items with Ki beneath it return true (1); others return false (0).

INSERT INTO results (chem_smiles, category_label) VALUES
  ('CCCNC(=O)c1nnc2c(-c3cccc(Cl)c3)cccc2c1N', 'false (0)'),
  ('COc1ccncc1-c1cccc2c(N)c(C(=O)NC3CC3)nnc12', 'true (1)'),
  ('CCCNC(=O)c1nnc2c(-c3ccc(OC)c(OC)c3OC)c(F)ccc2c1N', 'true (1)'),
  ('CCCNC(=O)c1nnc2c(-c3cc(F)c(OC)cc3F)cccc2c1N', 'true (1)'),
  ('COc1ncccc1-c1cccc2c(N)c(C(=O)NC3CC3)nnc12', 'true (1)'),
  ('CCCNC(=O)c1nnc2c(-c3cc(OC)ccc3F)cccc2c1N', 'true (1)'),
  ('CCCNC(=O)c1nnc2c(-c3ccc(OC)c(OC)c3OC)cccc2c1N', 'false (0)'),
  ('COc1ccc(C)cc1-c1cccc2c(N)c(C(=O)NC3CC3)nnc12', 'false (0)'),
  ('CCCNC(=O)c1nnc2c(-c3cccc(S(C)(=O)=O)c3)cccc2c1N', 'false (0)'),
  ('CCCNC(=O)c1nnc2c(-c3cnc(OC)c(Cl)c3)cccc2c1N', 'false (0)'),
  ('CCCNC(=O)c1nnc2c(-c3ccc(OC)c(F)c3)c(F)ccc2c1N', 'true (1)'),
  ('CCCNC(=O)c1nnc2c(-c3cccc(C)c3C)c(F)ccc2c1N', 'true (1)'),
  ('CCCNC(=O)c1nnc2c(-c3cc(C)ccc3F)cccc2c1N', 'true (1)'),
  ('CNC(=O)c1nnc2c(-c3cc(C)ccc3OC)cccc2c1N', 'false (0)'),
  ('CCCNC(=O)c1nnc2c(-c3ccc(F)cc3OCC)c(F)ccc2c1N', 'true (1)'),
  ('CCCNC(=O)c1nnc2c(-c3c(OC)cccc3OC)cccc2c1N', 'false (0)'),
  ('CCCNC(=O)c1nnc2c(-c3cc(C(F)(F)F)cc(C(F)(F)F)c3)cccc2c1N', 'false (0)'),
  ('CCCNC(=O)c1nnc2c(-c3cccc(C#N)c3)cccc2c1N', 'true (1)'),
  ('CCCNC(=O)c1nnc2c(-c3ccc(F)cc3)cccc2c1N', 'false (0)'),
  ('CCCNC(=O)c1nnc2c(-c3ccncc3)cccc2c1N', 'true (1)'),
  ('CCCNC(=O)c1nnc2c(-c3cccnc3)cccc2c1N', 'true (1)'),
  ('COc1ccc(-c2cccc3c(N)c(C(=O)NC4CC4)nnc23)c(OC)c1', 'true (1)'),
  ('CCCNC(=O)c1nnc2c(-c3cccc(F)c3F)cccc2c1N', 'true (1)'),
  ('CCCNC(=O)c1nnc2c(-c3ccccc3C(F)(F)F)cccc2c1N', 'true (1)'),
  ('CCCNC(=O)c1nnc2c(-c3ccc(OC)cc3C(F)(F)F)c(F)ccc2c1N', 'true (1)'),
  ('CCCNC(=O)c1nnc2c(-c3cc(Cl)ccc3OC)c(F)ccc2c1N', 'true (1)'),
  ('CCCNC(=O)c1nnc2c(-c3ccc4ccccc4c3)cccc2c1N', 'false (0)'),
  ('CCCNC(=O)c1nnc2c(-c3cc(F)ccc3OC)c(F)ccc2c1N', 'true (1)'),
  ('CCCNC(=O)c1nnc2c(-c3ccc(N(C)C)cc3)cccc2c1N', 'false (0)'),
  ('CCNC(=O)c1nnc2c(-c3cnc(OC)nc3OC)cccc2c1N', 'false (0)'),
  ('CCCNC(=O)c1nnc2c(-c3cnc(OC)nc3OC)c(Cl)ccc2c1N', 'true (1)'),
  ('CCCNC(=O)c1nnc2c(-c3cccc(OC)c3F)c(F)ccc2c1N', 'true (1)'),
  ('CCCNC(=O)c1nnc2c(-c3cccnc3OC)cccc2c1N', 'true (1)'),
  ('Cc1ccc(-c2cccc3c(N)c(C(=O)NC4CC4)nnc23)cn1', 'false (0)'),
  ('CCCNC(=O)c1nnc2c(-c3ccsc3)cccc2c1N', 'false (0)'),
  ('CCCNC(=O)c1nnc2c(-c3ccc(OC)cc3F)cccc2c1N', 'false (0)'),
  ('CCCNC(=O)c1nnc2c(-c3cc(OC)cc(OC)c3)cccc2c1N', 'false (0)');

These entries and their values trace back to patent US20080318925A1.
